System: A3G-Luc/Vif
METHOD: A3G-Luc/Vif luciferase screen in 293T cells stably co-expressing A3G-Luc and HIV-1 Vif
Type: cell-based, human
STATED CONDITIONS: 30 μM, 48 hrs, DMSO = 100%
REPORTED ENDPOINT: Vif-A3G-Luc Activity (% of RLUs compared to DMSO treated control) (%)
Numbers only here, please. The scale is %.

Kindly note the recorded Vif-A3G-Luc Activity (% of RLUs compared to DMSO treated control) for CCC(=O)Nc1cc(C(=O)Nc2cc(OC)c(OC)c(OC)c2)ccc1OC [NU-57] , which is 74

Looking up COc1ccc(NC(=O)c2ccc(OC)c(NC(=O)C(C)C)c2)cc1 [NU-54] , I see its Vif-A3G-Luc Activity (% of RLUs compared to DMSO treated control) listed as 116

For COc1ccc(C(=O)Nc2cc(OC)c(OC)c(OC)c2)cc1NC(=O)C(C)C [NU-56] the compound record lists Vif-A3G-Luc Activity (% of RLUs compared to DMSO treated control) as 93

Just so you know, measured Vif-A3G-Luc Activity (% of RLUs compared to DMSO treated control) for COc1ccc(C(=O)Nc2cc(OC)c(OC)c(OC)c2)cc1NC(C)=O [NU-58] came out at 93

Source of measurements: patent US9688637B2
